assayRemarks: Inhibition of calmodulin dependent cAMP phosphodiesterase.
Note to self: use True only for IC50 readings below 7 µM; a reading exactly at 7 µM still gets False.

[[record]]
chemsmiles = "CC/C(=C(\\c1ccccc1)c1ccc(OCCN2CCNCC2)cc1)c1ccccc1"
classname = "False"

[[record]]
chemsmiles = "CC/C(=C(\\c1ccc(I)cc1)c1ccc(OCCN(C)C)cc1)c1ccccc1"
classname = "True"

[[record]]
chemsmiles = "CCC(=C(c1ccc(O)cc1)c1ccc(OCCN(C)C)cc1)c1ccccc1"
classname = "False"

[[record]]
chemsmiles = "CC/C(=C(\\c1ccccc1)c1ccc(OCCN(CC)CC)cc1)c1ccccc1"
classname = "False"

[[record]]
chemsmiles = "C/C(=C(\\c1ccccc1)c1ccc(OCCN(C)C)cc1)c1ccccc1"
classname = "False"

[[record]]
chemsmiles = "CC/C(=C(\\c1ccccc1)c1ccc(OCCN(C)C)cc1)c1ccccc1"
classname = "True"

